# Tested on: S. aureus ATCC 33591
Below, each of the molecules is paired with its reported MIC value.

Here are 4 molecules together with their reported answers.
molecule: C[C@@H]1CC[C@@]2(OC1)O[C@H]1C[C@H]3[C@@H]4CC=C5C[C@@H](O[C@@H]6CC[C@@H](O)CO6)CC[C@]5(C)[C@H]4CC[C@]3(C)[C@H]1[C@@H]2C
MIC: > 256 mg/L
//
molecule: C[C@@H]1CC[C@@]2(OC1)O[C@H]1C[C@H]3[C@@H]4CC=C5C[C@@H](O[C@H]6C=C[C@H](O)CO6)CC[C@]5(C)[C@H]4CC[C@]3(C)[C@H]1[C@@H]2C
MIC: > 256 mg/L
//
molecule: C[C@@H]1CC[C@@]2(OC1)O[C@H]1C[C@H]3[C@@H]4CC=C5C[C@@H](O[C@@H]6C=C[C@@H](O)[C@@H](CO)O6)CC[C@]5(C)[C@H]4CC[C@]3(C)[C@H]1[C@@H]2C
MIC: > 256 mg/L
//
molecule: C[C@@H]1CC[C@@]2(OC1)O[C@H]1C[C@H]3[C@@H]4CC=C5C[C@@H](OC6CC[C@H](O)CO6)CC[C@]5(C)[C@H]4CC[C@]3(C)[C@H]1[C@@H]2C (some centres unmarked)
MIC: > 256 mg/L

From here, focus on the item given below.
// returns reported MIC for input `C[C@@H]1CC[C@@]2(OC1)O[C@H]1C[C@H]3[C@@H]4CC=C5C[C@@H](O[C@@H]6CC[C@H](O)CO6)CC[C@]5(C)[C@H]4CC[C@]3(C)[C@H]1[C@@H]2C`
256 mg/L

====

# Test system: prostate cancer cells (PC3 line)
# test-protocol: MTT cytotoxicity assay, PC3
# Format: cell-based, human
# setup-conditions: Homo sapiens, PC-3; PC3 cells, 48 h treatment, MTT
measurement-type: pIC50
In simple prose, pIC50 is minus the logarithm base ten of a concentration in moles per litre.

prostate cancer cells (PC3 line) / pIC50 / `C[C@@H]1CC[C@@]2(OC1)O[C@H]1C[C@H]3[C@@H]4CC=C5C[C@@H](O[C@@H]6CC[C@@H](O)CO6)CC[C@]5(C)[C@H]4CC[C@]3(C)[C@H]1[C@@H]2C` : value?
4.54

prostate cancer cells (PC3 line) / pIC50 / `C[C@@H]1CC[C@@]2(OC1)O[C@H]1C[C@H]3[C@@H]4CC=C5C[C@@H](O[C@@H]6C=C[C@H](O)CO6)CC[C@]5(C)[C@H]4CC[C@]3(C)[C@H]1[C@@H]2C` : value?
4.61

prostate cancer cells (PC3 line) / pIC50 / `C[C@@H]1CC[C@@]2(OC1)O[C@H]1C[C@H]3[C@@H]4CC=C5C[C@@H](O[C@H]6C=C[C@@H](O)[C@H](C)O6)CC[C@]5(C)[C@H]4CC[C@]3(C)[C@H]1[C@@H]2C` : value?
4.60

prostate cancer cells (PC3 line) / pIC50 / `C[C@@H]1CC[C@@]2(OC1)O[C@H]1C[C@H]3[C@@H]4CC=C5C[C@@H](O[C@@H]6C=C[C@H](O)[C@@H](CO)O6)CC[C@]5(C)[C@H]4CC[C@]3(C)[C@H]1[C@@H]2C` : value?
4.77

The measurements presented in this section are drawn from paper PMC11494662.
